Biological target: Ba/F3 ETV6-FGFR4-V550L cells (Homo sapiens, UniProt P22455, V550L, cells depend on it)
Construct: fused on or other part: N-terminal part of ETV6 (TEL), the oligomerising partner of the fusion; already named as the first entry; P41212 (Transcription factor ETV6)
Sequence (P22455 whole entry V550L, the tested form may be a part): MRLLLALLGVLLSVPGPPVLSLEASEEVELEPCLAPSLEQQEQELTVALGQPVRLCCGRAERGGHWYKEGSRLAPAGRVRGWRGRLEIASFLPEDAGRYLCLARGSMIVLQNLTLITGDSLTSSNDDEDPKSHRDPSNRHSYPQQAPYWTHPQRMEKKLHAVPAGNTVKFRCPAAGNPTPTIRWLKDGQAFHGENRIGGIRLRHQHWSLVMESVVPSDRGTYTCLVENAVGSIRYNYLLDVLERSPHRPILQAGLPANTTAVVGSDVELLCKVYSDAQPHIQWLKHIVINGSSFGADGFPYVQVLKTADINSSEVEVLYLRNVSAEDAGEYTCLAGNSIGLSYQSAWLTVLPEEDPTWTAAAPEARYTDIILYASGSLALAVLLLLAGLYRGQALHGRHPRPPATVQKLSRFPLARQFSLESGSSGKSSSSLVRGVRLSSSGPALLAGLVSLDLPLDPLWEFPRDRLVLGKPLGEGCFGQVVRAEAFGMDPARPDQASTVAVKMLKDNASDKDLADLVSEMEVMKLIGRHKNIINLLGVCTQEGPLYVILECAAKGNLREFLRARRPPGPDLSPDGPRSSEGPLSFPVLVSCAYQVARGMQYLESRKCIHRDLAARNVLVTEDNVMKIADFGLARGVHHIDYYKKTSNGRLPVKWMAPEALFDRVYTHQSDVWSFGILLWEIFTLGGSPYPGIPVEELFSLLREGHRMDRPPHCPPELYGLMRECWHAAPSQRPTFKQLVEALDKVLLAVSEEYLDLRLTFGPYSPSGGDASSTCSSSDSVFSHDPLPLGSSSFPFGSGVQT
Assay: Inhibition of cell proliferation (CCK-8), Ba/F3 ETV6-FGFR4-V550L cells
Type: cell-based
Conditions: 72 hours of incubation, read-out: Ba/F3 ETV6-FGFR4-V550L IC50
Reported GI50 values for the following compounds.

COMPOUND | GI50
C=CC(=O)Nc1cc(N2CCC(N(C)CCSC)CC2)ccc1Nc1ncc(C#N)c(Nc2ccccc2OC(C)C)n1 [Example 73] | ≤ 10 nM
C=CC(=O)Nc1cc(N2CCC(N3CCN(C)CC3)CC2)ccc1Nc1ncc(C#N)c(Nc2ccc(C(=O)O)cc2OC(C)C)n1 [Example 52] | 100 to 1000 nM
C=CC(=O)Nc1cc(N2CCN(CC)CC2)ccc1Nc1ncc(C#N)c(Nc2ccc(S(C)(=O)=O)cc2OC(C)C)n1 [Example 35] | 10 to 50 nM
C=CC(=O)Nc1cc(N2CCC(N(C)C3COC3)CC2)ccc1Nc1ncc(C#N)c(Nc2ccccc2OC(C)C)n1 [Example 72] | ≤ 10 nM
C=CC(=O)Nc1cc(N(C)CCN(C)C)c(OC)cc1Nc1ncc(C#N)c(Nc2ccccc2OC(C)C)n1 [Example 55] | ≤ 10 nM
C=CC(=O)Nc1cc(N2CCC(N3CCN(C)C(=O)C3)CC2)c(F)cc1Nc1ncc(C#N)c(Nc2ccccc2OC(C)C)n1 [Example 44] | ≤ 10 nM
C=CC(=O)Nc1cc(N2CCN(C)CC2)ccc1Nc1ncc(C#N)c(Nc2ccccc2OC(C)C)n1 [Example 1] | ≤ 10 nM
C=CC(=O)Nc1cc(N2CCC(N3CCN(C)CC3=O)CC2)ccc1Nc1ncc(C#N)c(Nc2ccccc2OC(C)C)n1 [Example 46] | ≤ 10 nM
C=CC(=O)Nc1cc(N2CCC(N3CCCC3)CC2)ccc1Nc1ncc(C#N)c(Nc2ccccc2OC(C)C)n1 [Example 3] | ≤ 10 nM
C=CC(=O)Nc1cc(N2CCC(N3CCS(=O)(=O)CC3)CC2)ccc1Nc1ncc(C#N)c(Nc2ccccc2OC(C)C)n1 [Example 76] | ≤ 10 nM
C=CC(=O)Nc1cc(N2CCN(CC)CC2)ccc1Nc1ncc(C#N)c(Nc2c(F)cccc2OC(C)C)n1 [Example 21] | 10 to 50 nM
C=CC(=O)Nc1cc(N2CCC(N(C)CC(C)(C)O)CC2)ccc1Nc1ncc(C#N)c(Nc2ccccc2OC(C)C)n1 [Example 67] | ≤ 10 nM
C=CC(=O)Nc1cc(N2CCC(N3CCC(F)(F)CC3)CC2)ccc1Nc1ncc(C#N)c(Nc2ccccc2OC(C)C)n1 [Example 71] | 10 to 50 nM
C=CC(=O)Nc1cc(N2CCC(N3CCN(C)CC3)CC2)c(F)cc1Nc1ncc(C#N)c(Nc2ccccc2OC(C)C)n1 [Example 20] | ≤ 10 nM
C=CC(=O)Nc1cc(N2CCN(CC)CC2)ccc1Nc1ncc(C#N)c(Nc2cc(C)ccc2OC(C)C)n1 [Example 24] | ≤ 10 nM
C=CC(=O)Nc1cc(N2CCC(N3CCC(C#N)CC3)CC2)ccc1Nc1ncc(C#N)c(Nc2ccccc2OC(C)C)n1 [Example 66] | ≤ 10 nM
C=CC(=O)Nc1cc(N2CCC(N3CCN(C)CC3=O)CC2)ccc1Nc1ncc(C#N)c(Nc2ccc(F)cc2OC(C)C)n1 [Example 47] | ≤ 10 nM
